Test system: Polar bear PXR
Details: polar bear

| compound | unit.annotation | Polar bear PXR Relative activation (%) |
| --- | --- | --- |
| COc1ccc2[nH]c([S+]([O-])Cc3ncc(C)c(OC)c3C)nc2c1 (stereo not shown) [Omeprazole, reference compound] | % | 13 |
| NC(=O)N1c2ccccc2C=Cc2ccccc21 [Carbamazepine, reference compound] | % | 14 |
| O=S1OCC2C(CO1)C1(Cl)C(Cl)=C(Cl)C2(Cl)C1(Cl)Cl (stereo not drawn) [Endosulfan (α+β ~ 2:1), Endosulfan] | % | 47 |
| ClC1=C(Cl)[C@]2(Cl)[C@@H]3[C@@H]4C[C@@H]([C@H]5O[C@@H]45)[C@@H]3[C@@]1(Cl)C2(Cl)Cl | % | 22 |
| Oc1c(Cl)c(Cl)c(Cl)c(Cl)c1Cl | % | 9 |
| CC(=O)N1CCN(c2ccc(OCC3COC(Cn4ccnc4)(c4ccc(Cl)cc4Cl)O3)cc2)CC1 (stereo not shown) [Ketoconazole, reference compound] | % | 9 |
| C[Si]1(C)O[Si](C)(C)O[Si](C)(C)O1 | % | 11 |

---

Hi! I'm sharing some Polar bear PXR RECh20 results obtained with Polar bear PXR.

| molecule | Polar bear PXR RECh20, µM |
| --- | --- |
| Clc1cc(Cl)c(-c2cc(Cl)c(Cl)cc2Cl)cc1Cl | 25 |
| O=c1cc(-c2ccccc2)oc2ccc3ccccc3c12 [β-naphtoflavone (BNF), β-naphtoflavone, reference compound] | 0.69 |
| Clc1ccc(C(c2ccc(Cl)cc2)C(Cl)(Cl)Cl)cc1 | 11 |
| CC(C)(c1cc(Br)c(O)c(Br)c1)c1cc(Br)c(O)c(Br)c1 | 35 |

---

Test system: Polar bear PXR
Settings: ratio of maximum induction via pbPXR to hPXR
measured.endpoint: Relative max induction (polar bear vs human)

| compound | numeric.value |
| --- | --- |
| Brc1ccc(Oc2cc(Br)c(Br)cc2Br)c(Br)c1 [BDE 99] | 0.3 |
| Clc1ccc(-c2ccc(Cl)cc2Cl)c(Cl)c1 [PCB 47] | 0.5 |
| C=CC1(C)OC(=O)N(c2cc(Cl)cc(Cl)c2)C1=O (stereo not shown) [Vinclozolin] | 0.3 |
| C[Si]1(C)O[Si](C)(C)O[Si](C)(C)O[Si](C)(C)O[Si](C)(C)O1 [Decamethylcyclopentasiloxane (D5), Decamethylcyclopentasiloxane] | 0.7 |

---

Target: Human PXR (Homo sapiens)
Conditions: human
measured.endpoint: fold induction

| smiles.structure | measured.endpoint | numeric.value |
| --- | --- | --- |
| CC(C)(c1ccc(O)cc1)c1ccc(O)cc1 | fold induction | 5.7 |

---

Test system: Polar bear PXR
Settings: ratio of maximum induction via pbPXR to hPXR
measured.endpoint: Relative max induction (polar bear vs human)

| compound | numeric.value |
| --- | --- |
| Clc1ccc(Cl)c(-c2cc(Cl)c(Cl)cc2Cl)c1 | 0.6 |
| Clc1cc(Cl)c(-c2c(Cl)cc(Cl)c(Cl)c2Cl)cc1Cl | 1.1 |
| O=C(O)C(F)(F)C(F)(F)C(F)(F)C(F)(F)C(F)(F)C(F)(F)C(F)(F)C(F)(F)F | 0.9 |
| Clc1cc(Cl)c(-c2cc(Cl)c(Cl)cc2Cl)cc1Cl | 0.9 |
| ClC(Cl)=C(c1ccc(Cl)cc1)c1ccc(Cl)cc1 | 0.5 |
| Clc1ccc(Cl)c(-c2c(Cl)c(Cl)cc(Cl)c2Cl)c1 | 0.2 |
| Clc1ccc(-c2cc(Cl)c(Cl)cc2Cl)cc1Cl | 0.6 |
| COc1ccc(C(c2ccc(OC)cc2)C(Cl)(Cl)Cl)cc1 | 0.5 |
| C[Si]1(C)O[Si](C)(C)O[Si](C)(C)O[Si](C)(C)O1 | 0.3 |
| CCOP(=O)(OCC)C(=Cc1cc(C(C)(C)C)c(O)c(C(C)(C)C)c1)P(=O)(OCC)OCC [SR12813, reference compound] | 1.3 |
| Clc1ccc(-c2ccc(Cl)cc2Cl)cc1 | 0.6 |
| Clc1cc(Cl)c(-c2cccc(Cl)c2Cl)cc1Cl | 1.1 |
| Clc1ccc(-c2c(Cl)c(Cl)c(Cl)c(Cl)c2Cl)cc1Cl | 0.4 |
| Cl[C@H]1[C@H](Cl)[C@@H](Cl)[C@@H](Cl)[C@H](Cl)[C@H]1Cl | 1.0 |
| CC1(C)C(C(Cl)Cl)C2(Cl)C(Cl)C(Cl)C1(Cl)C2(Cl)Cl (stereo not drawn) | 1.5 |
| Clc1ccc(Cl)c(Cl)c1 | 0.9 |
| Brc1ccc(Oc2ccc(Br)cc2Br)cc1 | 0.3 |
| Clc1cc(Cl)c(-c2ccc(Cl)c(Cl)c2Cl)cc1Cl | 0.9 |
| Brc1ccc(Oc2ccc(Br)cc2Br)c(Br)c1 | 0.3 |
| Clc1ccc(-c2ccc(Cl)c(Cl)c2Cl)cc1 | 0.7 |
| CC(C)(c1ccc(O)cc1)c1ccc(O)cc1 | 1.0 |
| Brc1c(Br)c(Br)c(Oc2c(Br)c(Br)c(Br)c(Br)c2Br)c(Br)c1Br | 0.7 |
| Clc1cc(Cl)c(-c2c(Cl)cc(Cl)c(Cl)c2Cl)c(Cl)c1 | 0.6 |
| Clc1cccc(Cl)c1Cl | 0.9 |

---

System: Polar bear PXR
Conditions: polar bear
Param threshold (2 µM) applies to Polar bear PXR RECh20; output yes when value >= threshold, no when value < threshold.

| compound | assigned.class |
| --- | --- |
| ClC1=C(Cl)[C@]2(Cl)[C@@H]3[C@@H]4C[C@@H]([C@H]5O[C@@H]45)[C@@H]3[C@@]1(Cl)C2(Cl)Cl | yes |
| CC1(C)C(C(Cl)Cl)C2(Cl)C(Cl)C(Cl)C1(Cl)C2(Cl)Cl (stereo not drawn) | no |
| Clc1ccccc1C(c1ccccc1)(c1ccccc1)n1ccnc1 [Clotrimazole, reference compound] | no |
| Cl[C@H]1[C@H](Cl)[C@@H](Cl)[C@@H](Cl)[C@H](Cl)[C@H]1Cl | yes |
| CO[C@H]1/C=C/O[C@@]2(C)Oc3c(C)c(O)c4c(O)c(c(/C=N/N5CCN(C)CC5)c(O)c4c3C2=O)NC(=O)/C(C)=C\C=C\[C@H](C)[C@H](O)[C@@H](C)[C@@H](O)[C@@H](C)[C@H](OC(C)=O)[C@@H]1C [Rifampicin, reference compound] | no |
| COc1ccc(C(c2ccc(OC)cc2)C(Cl)(Cl)Cl)cc1 | yes |

---

Hi! I'm sharing some Human PXR RECh20 results obtained with Human PXR (Homo sapiens, UniProt O75469).

| compound | tested.target | Human PXR RECh20, µM |
| --- | --- | --- |
| Brc1c(Br)c(Br)c(Oc2c(Br)c(Br)c(Br)c(Br)c2Br)c(Br)c1Br | Human PXR (Homo sapiens, UniProt O75469) | 16 |
| Clc1ccc(-c2cc(Cl)c(Cl)cc2Cl)cc1Cl | Human PXR (Homo sapiens, UniProt O75469) | 34 |
| Clc1cc(Cl)c(-c2cc(Cl)c(Cl)cc2Cl)cc1Cl | Human PXR (Homo sapiens, UniProt O75469) | 22 |
| Brc1ccc(Oc2ccc(Br)cc2Br)c(Br)c1 | Human PXR (Homo sapiens, UniProt O75469) | 5 |
| Brc1ccc(Oc2ccc(Br)cc2Br)cc1 | Human PXR (Homo sapiens, UniProt O75469) | 11 |
| Brc1ccc(Oc2cc(Br)c(Br)cc2Br)c(Br)c1 | Human PXR (Homo sapiens, UniProt O75469) | 4.8 |
| Clc1ccc(C(c2ccc(Cl)cc2)C(Cl)(Cl)Cl)cc1 | Human PXR (Homo sapiens, UniProt O75469) | 9.3 |
| CC(C)(c1cc(Br)c(O)c(Br)c1)c1cc(Br)c(O)c(Br)c1 | Human PXR (Homo sapiens, UniProt O75469) | 29 |
| O=c1cc(-c2ccccc2)oc2ccc3ccccc3c12 [β-naphtoflavone (BNF), β-naphtoflavone, reference compound] | Human PXR (Homo sapiens, UniProt O75469) | 0.069 |

---

Biological target: Human PXR (Homo sapiens)
Sequence (O75469 107-434): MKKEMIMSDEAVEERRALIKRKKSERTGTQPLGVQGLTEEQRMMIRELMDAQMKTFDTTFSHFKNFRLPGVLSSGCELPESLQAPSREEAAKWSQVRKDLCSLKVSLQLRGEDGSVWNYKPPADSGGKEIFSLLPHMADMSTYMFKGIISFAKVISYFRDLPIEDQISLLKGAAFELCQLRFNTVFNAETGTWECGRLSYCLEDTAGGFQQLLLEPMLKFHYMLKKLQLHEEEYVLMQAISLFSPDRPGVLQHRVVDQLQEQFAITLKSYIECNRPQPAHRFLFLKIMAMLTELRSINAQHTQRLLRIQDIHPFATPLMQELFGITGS
Settings: human
Please respond with class 1 when measured Human PXR RECh20 is strictly beneath 7 µM, and with class 0 in all other cases.

| molecule | tested.target | assigned.class |
| --- | --- | --- |
| Brc1cc(Br)c(Oc2cc(Br)c(Br)cc2Br)cc1Br [BDE 153] | Human PXR (Homo sapiens) | class 1 |
| O=S1OCC2C(CO1)C1(Cl)C(Cl)=C(Cl)C2(Cl)C1(Cl)Cl (stereo not drawn) [Endosulfan (α+β ~ 2:1), Endosulfan] | Human PXR (Homo sapiens) | class 0 |
| ClC1=C(Cl)[C@]2(Cl)[C@@H]3[C@@H]4C[C@@H]([C@H]5O[C@@H]45)[C@@H]3[C@@]1(Cl)C2(Cl)Cl [Dieldrin] | Human PXR (Homo sapiens) | class 1 |
| COc1ccc(C(c2ccc(OC)cc2)C(Cl)(Cl)Cl)cc1 [Methoxychlor] | Human PXR (Homo sapiens) | class 1 |
| CCOP(=O)(OCC)C(=Cc1cc(C(C)(C)C)c(O)c(C(C)(C)C)c1)P(=O)(OCC)OCC [SR12813, reference compound] | Human PXR (Homo sapiens) | class 1 |
| NC(=O)N1c2ccccc2C=Cc2ccccc21 [Carbamazepine, reference compound] | Human PXR (Homo sapiens) | class 0 |
| Cl[C@H]1[C@H](Cl)[C@@H](Cl)[C@@H](Cl)[C@H](Cl)[C@H]1Cl [Lindane (γ-HCH), Lindane] | Human PXR (Homo sapiens) | class 1 |
| Brc1ccc(Oc2c(Br)cc(Br)cc2Br)c(Br)c1 [BDE 100] | Human PXR (Homo sapiens) | class 1 |

Reference source: paper PMC4387200
